Record type: IC50 measurement. Applies to: Cytochrome P450 2D6 (Homo sapiens)

Problem: Can you share its IC50? I mean this compound: CCCc1cc(-c2nc3c(s2)CCCC3)ccc1OCCCOc1ccc2c(c1)CC[C@H]2CC(=O)O
Result: > 10 µM

Problem: Using the record for O=C(O)C[C@@H]1CCc2cc(OCCCOc3ccc(-c4nc5c(s4)CCCC5)cc3)ccc21 , report its IC50.
Result: > 10 µM

---

test-description: Aqueous solubility of the compound
Format: physicochemical
measurement-name: solubility

Problem: Please report the recorded solubility for CCCc1c(OCCCOc2ccc3c(c2)CC[C@H]3CC(=O)O)ccc2c(C(F)(F)F)noc12 .
Result: < 1 µM
